system: BT-549 breast; experiment: NCI tumour cell line growth inhibition, 48 h
Task for the reader: assign each of the following compounds its reported TGI.

Q: Which TGI value is on record for CCNC(=O)Cc1nc2c(=O)[nH]cnc2n1C1OC(CO)C(O)C1O (configuration not stated) ?
A: > 100 µM

Q: Another compound to look at: CCOC(=O)c1nc2ccc(C(F)(F)F)cc2nc1Nc1ccc(OC)c(OC)c1
A: > 100 µM

Q: Another compound to look at: O=c1[nH][nH]c(=S)c(=O)[nH]1
A: > 100 µM

Q: Another compound to look at: Cc1ccc(C(=O)Nc2ccc(CP(=O)(O)O)cc2)cc1NC(=O)Nc1cc(C(=O)Nc2ccc(CP(=O)(O)O)cc2)ccc1C
A: > 100 µM

Q: Another compound to look at: COc1cc(C2SC(N)=Nc3c2c(C)nn3C(=O)Cc2ccccc2)ccc1O (configuration not stated)
A: > 100 µM

Q: Another compound to look at: Cc1cc(NC(=O)C(=O)Cc2nc3ccccc3s2)ccc1Cl
A: > 100 µM

Q: Another compound to look at: OCCCNC(=S)Nc1ccc(-c2nc3ccccc3s2)cc1
A: 82.9 µM

Q: Another compound to look at: Cn1c(=O)c2c(nc3sc4ncccc4c(=O)n32)n(C)c1=O
A: > 100 µM

Q: Another compound to look at: Cc1ccc(S(=O)(=O)C2=C3C(=C(c4ccccc4)c4ccccc43)CN(S(=O)(=O)c3ccc(C)cc3)C2)cc1
A: 4.65 µM

Q: Another compound to look at: CC(=O)O[C@@H]1CC(=O)O[C@@H]2C[C@@H](CC/C(Cl)=C/C/C=C\1C)O[C@@H]2CO
A: > 25 µM

Q: Another compound to look at: C/C(=C\[C@H]1C[C@@H]([C@@H]2CC[C@]34C[C@]23C=C[C@@H]2[C@@]3(C)CC=C5C[C@@H](c6ccccc6)OC[C@]5(C)[C@@H]3C[C@@H](O)[C@]24C)C(=O)O1)CO
A: 98.6 µM

Q: Another compound to look at: O=C1/C(=C/c2cccc3ccccc23)Cc2ccccc21
A: 29.9 µM

Q: Another compound to look at: CC1(C)OC([C@H](O)CO)C([C@H]2NCCS2)O1 (some centres not stated)
A: > 100 µM

Q: Another compound to look at: O=S(=O)(c1ccccc1)C1CN(Cc2ccccc2)CCN(Cc2ccccc2)C1
A: > 100 µM

Q: Another compound to look at: O=C1CCC2(c3ccc(F)cc3)Nc3ncncc3N12 (configuration not stated)
A: > 10 µM

Q: Another compound to look at: COc1ccc2c(c1)CC[C@@H]1[C@@H]2CC[C@]2(C)c3c(cc(C(=O)c4ccccc4)c4sccc34)C[C@@H]12
A: > 100 µM

Q: Another compound to look at: Cc1ccc(OCCn2cc(Nc3ccccc3)c(=O)[nH]c2=O)cc1
A: > 100 µM

====

test system: DU-145 prostate; test: NCI tumour cell line growth inhibition, 48 h
Task for the reader: assign each of the following molecules its reported TGI.

Q: // lookup TGI | system=DU-145 prostate | key= CCOC(=O)C1C(=O)CC(C)(O)C(C(=O)OCC)C1c1ccc(OC)cc1 (stereo not drawn)
A: > 100 µM

Q: Another molecule to look at: O=C(CN1C(=O)c2ccccc2C1=O)OCC1CCCN2CCCCC12 (stereo not drawn)
A: > 100 µM

Q: Another molecule to look at: O=C1c2cccnc2-c2nccc3ccnc1c23
A: 2.65 µM
